ASSAY_COMMENT: Nonhuman primate PK study, plasma and CSF
CONDITION_PARAMETERS: male, cynomolgus monkey, in vivo, po, 10 mg/kg
RECORDED_METRIC: half-life

INSERT INTO results (substance_smiles, val) VALUES
  ('C=CC(=O)N1CCC[C@@H](n2c(=O)n(-c3ccc(Oc4ccccc4)cc3)c3c(N)nccc32)C1', '~240 min');

Consider now this further compound.
Query: Tell me the measured half-life of C=CC(=O)N1CCC(CNc2ncnc(N)c2-c2ccc(Oc3ccccc3)cc2)CC1 , please.
Result: ~240 min

* * *

SYSTEM_UNDER_TEST: BLK (Homo sapiens, UniProt P51451)
Sequence (P51451 whole entry, species assumed): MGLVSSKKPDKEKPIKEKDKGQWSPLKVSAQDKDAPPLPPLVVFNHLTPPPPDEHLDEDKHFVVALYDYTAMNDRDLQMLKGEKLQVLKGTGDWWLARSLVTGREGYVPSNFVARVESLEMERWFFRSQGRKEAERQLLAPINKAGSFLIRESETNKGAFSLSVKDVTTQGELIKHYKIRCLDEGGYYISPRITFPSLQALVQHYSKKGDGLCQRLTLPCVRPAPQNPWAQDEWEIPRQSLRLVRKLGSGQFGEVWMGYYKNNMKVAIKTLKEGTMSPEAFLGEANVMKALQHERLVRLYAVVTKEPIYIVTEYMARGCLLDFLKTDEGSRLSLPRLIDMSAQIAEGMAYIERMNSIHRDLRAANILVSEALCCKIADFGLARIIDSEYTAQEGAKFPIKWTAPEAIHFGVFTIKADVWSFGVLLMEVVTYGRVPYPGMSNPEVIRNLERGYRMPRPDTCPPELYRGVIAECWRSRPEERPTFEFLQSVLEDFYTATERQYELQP
RECORDED_METRIC: IC50

Query: Tell me the measured IC50 of C=CC(=O)N1CCC[C@@H](n2c(=O)n(-c3ccc(Oc4ccccc4)cc3)c3c(N)nccc32)C1 , please.
Result: ≤ 4 nM

Recorded values, source paper PMC11315827.
